Each record here notes measured MIC.
Test system: M. tuberculosis strain mc^24914 (inhA promoter c(−15)t)
Experiment: microbe, parasite or virus in culture
Assay type: cell-based, Mycobacterium tuberculosis
Details: Mycobacterium tuberculosis
Output spec: scalar in µM, unitless text.

Some solved entries appear below for comparison.
*Q* Please look up its MIC: NNC(=O)c1ccncc1 [INH, reference compound]
*A* 1.25

*Q* Please look up its MIC: O=[N+]([O-])c1cn2c(n1)OC[C@@H](OCc1ccc(OC(F)(F)F)cc1)C2 [Pretomanid, reference compound]
*A* 0.16

*Q* Please look up its MIC: O=[N+]([O-])c1ccc(/C=N/Nc2nc(Nc3ccccc3)nc(N3CCOCC3)n2)o1
*A* 2.5

Shifting focus to the compound that follows.
*Q* Please look up its MIC: O=[N+]([O-])c1ccc(/C=N/Nc2nc(Nc3ccccc3)nc(Nc3ccccc3)n2)o1
*A* 0.63
